Data provenance: patent US20080269267A1

Biological target: C-Met kinase (SEQ ID NO:10) (Homo sapiens, UniProt P08581)
Sequence (P08581 with tags, fused parts or gaps): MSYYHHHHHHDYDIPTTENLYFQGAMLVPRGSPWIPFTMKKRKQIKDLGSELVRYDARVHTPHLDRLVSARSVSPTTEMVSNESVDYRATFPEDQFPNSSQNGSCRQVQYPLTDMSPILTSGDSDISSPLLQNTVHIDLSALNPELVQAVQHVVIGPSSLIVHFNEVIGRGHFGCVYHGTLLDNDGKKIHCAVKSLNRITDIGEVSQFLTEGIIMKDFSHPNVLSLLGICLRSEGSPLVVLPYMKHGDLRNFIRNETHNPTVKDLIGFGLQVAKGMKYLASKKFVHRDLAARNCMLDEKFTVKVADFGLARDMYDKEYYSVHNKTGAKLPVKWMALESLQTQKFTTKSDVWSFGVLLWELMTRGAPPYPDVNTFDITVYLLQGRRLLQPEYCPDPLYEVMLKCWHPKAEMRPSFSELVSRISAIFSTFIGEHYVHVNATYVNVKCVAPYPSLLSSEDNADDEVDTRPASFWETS
pIC50: −log10 of the molar value. Counter-ions that a name gives are not always drawn.
readoutType: pIC50

[
  {
    "molecule": "Cn1cc(-c2cc(Oc3ccc(NC(=O)Nc4cc(C(C)(C)C)nn4-c4ccc(C#N)cc4)c(F)c3)ccn2)cn1 [Example 6]",
    "readoutType": "pIC50",
    "observedMeasurement": "> 7.00"
  },
  {
    "molecule": "Cc1ncc(NC(=O)Nc2ccc(Oc3ccnc(-c4cnn(C)c4)c3)cc2F)c(-c2ccccc2)n1 [Example 14]",
    "readoutType": "pIC50",
    "observedMeasurement": "> 5.00"
  },
  {
    "molecule": "CCc1cc(NC(=O)Nc2ccc(Oc3ccnc(-c4cnn(C)c4)c3)cc2F)n(-c2cccc(C#N)c2)n1 [Example 9]",
    "readoutType": "pIC50",
    "observedMeasurement": "> 6.00"
  },
  {
    "molecule": "Cn1cc(-c2cc(Oc3ccc(NC(=O)Nc4cc(C(C)(C)C)nn4-c4ccccc4)c(F)c3)ccn2)cn1 [Example 1]",
    "readoutType": "pIC50",
    "observedMeasurement": "> 7.00"
  },
  {
    "molecule": "Cn1cc(-c2cc(Oc3ccc(NC(=O)Nc4cc(C(C)(C)C)nn4-c4cccc(C#N)c4)c(F)c3)ccn2)cn1 [Example 4, hydrochloride]",
    "readoutType": "pIC50",
    "observedMeasurement": "> 7.00"
  },
  {
    "molecule": "CC(C)(C)c1cc(NC(=O)Nc2ccc(Oc3ccnc(-c4cn[nH]c4)c3)cc2F)n(-c2cccc(C#N)c2)n1 [Example 3, hydrochloride]",
    "readoutType": "pIC50",
    "observedMeasurement": "> 7.00"
  },
  {
    "molecule": "Cn1cc(-c2cc(Oc3ccc(NC(=O)Nc4cc(-c5ccccc5F)nn4C)c(F)c3F)ccn2)cn1 [Example 25]",
    "readoutType": "pIC50",
    "observedMeasurement": "> 6.00"
  },
  {
    "molecule": "CC(C)c1cc(NC(=O)Nc2ccc(Oc3ccnc(-c4cnn(C)c4)c3)c(F)c2F)n(-c2cccc(C#N)c2)n1 [Example 13]",
    "readoutType": "pIC50",
    "observedMeasurement": "> 7.00"
  }
]

The recorded pIC50 for entry Cc1ccc(-n2nc(C(C)C)cc2NC(=O)Nc2ccc(Oc3ccnc(-c4cnn(C)c4)c3)cc2F)cc1C#N [Example 11] equals > 7.00

Entry under test: CCc1cc(NC(=O)Nc2ccc(Oc3ccnc(-c4cnn(CC)c4)c3)cc2F)n(-c2cccc(C#N)c2)n1 [Example 18] . Its pIC50 was > 6.00
